Molecular target: UniProt Q8TBX8
Sequence (Q8TBX8 whole entry): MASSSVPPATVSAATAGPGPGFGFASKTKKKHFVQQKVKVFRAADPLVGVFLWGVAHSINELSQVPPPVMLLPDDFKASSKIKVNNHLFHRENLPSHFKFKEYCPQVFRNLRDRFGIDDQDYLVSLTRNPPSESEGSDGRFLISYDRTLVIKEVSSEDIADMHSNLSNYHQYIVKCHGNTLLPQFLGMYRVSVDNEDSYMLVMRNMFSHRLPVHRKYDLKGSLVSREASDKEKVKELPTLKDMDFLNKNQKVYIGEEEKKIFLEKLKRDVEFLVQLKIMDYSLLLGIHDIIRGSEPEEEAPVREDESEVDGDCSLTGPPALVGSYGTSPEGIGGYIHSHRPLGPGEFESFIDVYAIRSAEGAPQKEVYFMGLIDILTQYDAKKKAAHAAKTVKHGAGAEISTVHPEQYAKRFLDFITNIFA
Experiment: Inhibition of PIP4K2C in human HCT116 cell lysate after 1 hr by LC-MS/MS analysis relative to control
Recorded metric: IC50 (µM)
One number for each entry, in µM.

Recorded IC50 for `CNC(=O)c1ccc(Nc2nc(OC3CCCC3)c3c(-c4ccc5nc(C)oc5c4)c[nH]c3n2)c(OC)c1` on UniProt Q8TBX8 was 1.3

###

assay: MRT in SCID mouse at 5 mg/kg, iv; type: ADME, organism-based; conditions: in vivo
Recorded metric: MRT (h)
One number for each entry, in h.

For record `CNC(=O)c1ccc(Nc2nc(OC3CCCC3)c3c(-c4ccc5nc(C)oc5c4)c[nH]c3n2)c(OC)c1` the listed MRT is 5.2

###

test: Metabolic stability in human liver S9 fraction assessed as percent of compound remaining after 60 mins; assay type: ADME, tissue-based; details: read-out: Stability
Assign labels as follows, please: 1 for remaining at 1 h below 80%; 0 for remaining at 1 h equal to or exceeding 80%.

Before answering, review these 3 worked examples.
CNC(=O)c1ccc(Nc2nc(OC3CCOCC3)c3c(-c4ccc5nc(C)oc5c4)c[nH]c3n2)c(OC)c1 : 1
CNC(=O)c1ccc(Nc2nc(OC3CCCC3)c3c(-c4ccc5nc(C)oc5c4)c[nH]c3n2)c(OC)c1 : 0
CNC(=O)c1ccc(Nc2nc(O[C@H]3CCOC3)c3c(-c4ccc5nc(C)oc5c4)c[nH]c3n2)c(OC)c1 : 1

Kindly review the next compound as well.
INPUT: Please determine if `CNC(=O)c1ccc(Nc2nc(O[C@H]3CC[C@@](C)(O)CC3)c3c(-c4ccc5nc(C)oc5c4)c[nH]c3n2)c(OC)c1` is below 80% in terms of remaining at 1 h.
OUTPUT: 1

###

Kindly supply the reported remaining at 1 h values for the records listed here.
assay: Metabolic stability in rat liver S9 fraction assessed as percent of compound remaining after 60 mins; assay type: ADME, tissue-based; conditions: read-out: Stability
Answers are plain numbers, in %.

CNC(=O)c1ccc(Nc2nc(OC3CCOCC3)c3c(-c4ccc5nc(C)oc5c4)c[nH]c3n2)c(OC)c1 : 75
CNC(=O)c1ccc(Nc2nc(OC3CCCC3)c3c(-c4cn[nH]c4)c[nH]c3n2)c(OC)c1 : 36
CNC(=O)c1ccc(Nc2nc(OC(C)C)c3c(-c4ccc5nc(C)oc5c4)c[nH]c3n2)c(OC)c1 : 69

Next item in the queue.
For record `CNC(=O)c1ccc(Nc2nc(OC3CCCC3)c3c(-c4ccncc4)c[nH]c3n2)c(OC)c1` the listed remaining at 1 h is 83

###

target: Phosphorylase b kinase gamma catalytic chain, skeletal muscle/heart isoform (Homo sapiens, UniProt Q16816); experiment: Inhibition of full length human GST-tagged PHKG1 expressed in baculovirus by Z'-LYTE assay
Sequence (Q16816 whole entry, canonical isoform): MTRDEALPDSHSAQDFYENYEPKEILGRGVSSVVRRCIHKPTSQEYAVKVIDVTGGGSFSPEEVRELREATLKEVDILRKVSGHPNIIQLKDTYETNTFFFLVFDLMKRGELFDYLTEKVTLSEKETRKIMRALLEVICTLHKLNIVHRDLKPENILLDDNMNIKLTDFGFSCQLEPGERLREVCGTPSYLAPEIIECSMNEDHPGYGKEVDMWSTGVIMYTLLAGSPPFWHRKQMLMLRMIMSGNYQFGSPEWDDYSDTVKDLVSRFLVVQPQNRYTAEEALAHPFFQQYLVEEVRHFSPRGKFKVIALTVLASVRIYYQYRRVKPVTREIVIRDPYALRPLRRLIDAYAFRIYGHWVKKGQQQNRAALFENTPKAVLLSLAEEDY
Recorded metric: IC50 (nM)
Answers are plain numbers, in nM.

For record `CNC(=O)c1ccc(Nc2nc(OC3CCCC3)c3c(-c4ccc5nc(C)oc5c4)c[nH]c3n2)c(OC)c1` the listed IC50 is 136

###

Kindly supply the reported clearance values for the records listed here.
assay: Clearance in SCID mouse at 10 mg/kg, iv; type: ADME, organism-based; settings: in vivo
Answers are plain numbers, in mL/min/kg.

CNC(=O)c1ccc(Nc2nc(O[C@H]3CCOC3)c3c(-c4ccc5nc(C)oc5c4)c[nH]c3n2)c(OC)c1 : 19.1
COc1cc(C(=O)NC2COC2)ccc1Nc1nc(OC2CCCC2)c2c(-c3ccc4nc(C)oc4c3)c[nH]c2n1 : 14.3
CNC(=O)c1ccc(Nc2nc(O[C@H]3CC[C@@](C)(O)CC3)c3c(-c4ccc5nc(C)oc5c4)c[nH]c3n2)c(OC)c1 : 52.2
CNC(=O)c1ccc(Nc2nc(OC(C)C)c3c(-c4ccc5nc(C)oc5c4)c[nH]c3n2)c(OC)c1 : 7.71

Next item in the queue.
For record `CNC(=O)c1ccc(Nc2nc(OC3CCOCC3)c3c(-c4ccc5nc(C)oc5c4)c[nH]c3n2)c(OC)c1` the listed clearance is 67.6

###

experiment: Clearance in rat at 2 mg/kg, iv; format: ADME, organism-based; settings: in vivo
# binarize clearance: threshold 20 mL/min/kg inclusive, high side yes, low side no

CNC(=O)c1ccc(Nc2nc(OC3CCCC3)c3c(-c4ccc5nc(C)oc5c4)c[nH]c3n2)c(OC)c1 : no
CNC(=O)c1ccc(Nc2nc(OC(C)C)c3c(-c4ccc5nc(C)oc5c4)c[nH]c3n2)c(OC)c1 : yes
CNC(=O)c1ccc(Nc2nc(O[C@H]3CC[C@@](C)(O)CC3)c3c(-c4ccc5nc(C)oc5c4)c[nH]c3n2)c(OC)c1 : no
CNC(=O)c1ccc(Nc2nc(OC3CCOCC3)c3c(-c4ccc5nc(C)oc5c4)c[nH]c3n2)c(OC)c1 : yes
COc1cc(C(=O)NC2COC2)ccc1Nc1nc(OC2CCCC2)c2c(-c3ccc4nc(C)oc4c3)c[nH]c2n1 : no

Kindly review the next compound as well.
INPUT: # bool: clearance of `CNC(=O)c1ccc(Nc2nc(O[C@H]3CCOC3)c3c(-c4ccc5nc(C)oc5c4)c[nH]c3n2)c(OC)c1` >= 20 mL/min/kg
OUTPUT: yes
